target: JAK2 (Homo sapiens, UniProt O60674); construct: host or cells: baculovirus expression system; test: Recombinant Human JAK2 Kinase Assay (TRF); assay type: biochemical; conditions: JAK2 Kinase Inhibition; read-out: JAK2 Potency
Sequence (O60674 whole entry): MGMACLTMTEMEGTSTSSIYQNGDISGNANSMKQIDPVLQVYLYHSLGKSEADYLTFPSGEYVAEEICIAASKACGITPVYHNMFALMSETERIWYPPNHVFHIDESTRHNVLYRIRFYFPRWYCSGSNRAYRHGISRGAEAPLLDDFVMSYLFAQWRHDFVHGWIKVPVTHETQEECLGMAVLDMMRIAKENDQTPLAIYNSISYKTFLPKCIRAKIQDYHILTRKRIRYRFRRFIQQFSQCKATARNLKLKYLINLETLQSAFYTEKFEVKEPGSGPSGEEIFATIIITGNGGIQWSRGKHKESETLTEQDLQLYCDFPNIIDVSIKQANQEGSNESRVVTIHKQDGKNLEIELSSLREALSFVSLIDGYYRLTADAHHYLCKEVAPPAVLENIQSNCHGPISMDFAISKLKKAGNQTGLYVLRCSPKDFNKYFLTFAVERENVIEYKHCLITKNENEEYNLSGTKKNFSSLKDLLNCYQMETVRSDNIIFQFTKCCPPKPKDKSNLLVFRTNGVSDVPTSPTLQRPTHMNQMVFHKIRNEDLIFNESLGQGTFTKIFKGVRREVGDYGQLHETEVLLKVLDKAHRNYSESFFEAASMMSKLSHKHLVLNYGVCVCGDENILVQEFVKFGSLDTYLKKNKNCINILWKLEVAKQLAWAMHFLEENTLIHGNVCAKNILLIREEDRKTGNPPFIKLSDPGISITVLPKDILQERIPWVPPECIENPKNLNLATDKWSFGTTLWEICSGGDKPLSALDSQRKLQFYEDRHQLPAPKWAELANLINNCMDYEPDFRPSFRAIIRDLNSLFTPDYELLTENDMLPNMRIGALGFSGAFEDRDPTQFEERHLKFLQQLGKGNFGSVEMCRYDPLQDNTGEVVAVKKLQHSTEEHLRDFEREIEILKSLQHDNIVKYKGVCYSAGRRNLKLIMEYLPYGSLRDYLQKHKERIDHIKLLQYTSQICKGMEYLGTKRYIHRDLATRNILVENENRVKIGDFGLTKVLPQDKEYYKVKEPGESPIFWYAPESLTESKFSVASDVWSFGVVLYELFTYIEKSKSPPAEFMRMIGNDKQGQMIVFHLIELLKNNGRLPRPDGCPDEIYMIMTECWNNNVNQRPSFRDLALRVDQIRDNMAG
pIC50: −log10 of the molar value.
READOUT_TYPE: pIC50

COMPOUND	pIC50
COc1ccccc1-c1ccc2cnc(C#N)nn12 [Example 1494]	< 5.00
CN1CCN(C(=O)c2cccc(Nc3ncc4ccc(-c5ccc(S(C)(=O)=O)cc5)n4n3)c2)CC1 [Example 342]	> 7.00
Clc1cccc(-c2ccc3cnc(Nc4ccc(N5CCCC(N6CCOCC6)C5)cc4)nn23)c1 (centres unmarked) [Example 345]	> 7.00
COc1cc(N2CCC(N3CCOCC3)CC2)ccc1Nc1ncc2ccc(-c3ccccc3N(C)S(C)(=O)=O)n2n1 [Example 1453]	6.00 to 7.00
CN1CCN(CCOc2ccc(Nc3ncc4ccc(-c5cccnc5)n4n3)cc2)CC1 [Example 119]	> 7.00

[ask] Recorded pIC50 of CS(=O)(=O)c1cccc(-c2ccc3cnc(Nc4cccc(N5CCOCC5)c4)nn23)c1 [Example 184] , please.
[reply] > 7.00

[ask] Request: OCCN1CCN(c2cccc(Nc3ncc4ccc(-c5cccc(Cl)c5)n4n3)c2)CC1 [Example 179]
[reply] > 7.00

[ask] Now give it for COc1cc(N2CCC(N3CCOCC3)CC2)ccc1Nc1ncc2ccc(-c3ccccc3C(F)(F)F)n2n1 [Example 1464] too.
[reply] 6.00 to 7.00
